Recorded pIC50 by entry
# System: non-small cell lung carcinoma cell strain HCC827
# method description: In-vitro tumor cell proliferation inhibition, MTT
# Type: cell-based, human
# condition label: 72 hours
# Description: The object of this assay was to test the inventive compounds for the inhibitory activity of in-vitro tumor cell proliferation. The MTT (tetreamethyl-azo-zole-salt) colorimetric method was used in this assay. All of the above-mentioned non-small cell lung carcinoma cell strains and the breast carcinoma cell strain BT 474 were cultured with a RPMI-1640 complete culture medium containing 10% fetal bovine serum, 100 U/ml penicillin and 100 μg/ml streptomycin under 5% CO2 and at 37° C. […]
# pIC50: negative log10 of molar concentration; output just the value

entry smiles	pIC50
CC(C)n1c(Nc2ccc(Br)cc2)nc2cnc(Nc3ccc(N4CCN(C)CC4)cc3)nc21	9.70
CN1CCN(c2ccc(Nc3ncc4nc(Nc5ccccc5)n(C5CCCCC5)c4n3)cc2)CC1	9.52
CN1CCN(c2ccc(Nc3ncc4nc(Nc5ccccc5)n(C5CCCC5)c4n3)cc2)CC1	8.96
CC(C)n1c(NC2CCCCC2)nc2cnc(Nc3ccc(N4CCN(C)CC4)cc3)nc21	6.32
C#Cc1cccc(Nc2nc3cnc(Nc4ccc(N5CCN(C)CC5)cc4)nc3n2C2CCCC2)c1	9.52

Prompt: What pIC50 value was documented for this compound, CC(C)n1c(Nc2ccc(NC(=O)Nc3ccc(F)c(Cl)c3)cc2)nc2cnc(Nc3ccc(N4CCN(C)CC4)cc3)nc21 ?
Response: 7.29

Prompt: What pIC50 value was documented for this compound, CC(C)n1c(Nc2ccccc2)nc2cnc(Nc3ccc(C(=O)NC4CCN(C)CC4)cc3)nc21 ?
Response: 8.38

Prompt: What pIC50 value was documented for this compound, CN1CCN(c2ccc(Nc3ncc4nc(Nc5cccc(O)c5)n(C5CCCC5)c4n3)cc2)CC1 ?
Response: 9.70

Prompt: What pIC50 value was documented for this compound, CN1CCN(c2ccc(Nc3ncc4nc(Nc5ccccc5)n(C5CC5)c4n3)cc2)CC1 ?
Response: 9.70

Prompt: What pIC50 value was documented for this compound, CN1CCN(c2ccc(Nc3ncc4nc(Nc5ccc(Br)cc5)n(C5CCCC5)c4n3)cc2)CC1 ?
Response: 9.52

Prompt: What pIC50 value was documented for this compound, CC(C)n1c(Nc2ccc(F)c(Cl)c2)nc2cnc(Nc3ccc(N4CCN(C)CC4)cc3)nc21 ?
Response: 9.70

Prompt: What pIC50 value was documented for this compound, COc1ccc(Nc2nc3cnc(Nc4ccc(N5CCN(C)CC5)cc4)nc3n2C(C)C)cc1 ?
Response: 6.93

Prompt: What pIC50 value was documented for this compound, CC(C)n1c(Nc2ccc(OCc3cccc(F)c3)c(Cl)c2)nc2cnc(Nc3ccc(N4CCOCC4)cc3)nc21 ?
Response: 5.37

Prompt: What pIC50 value was documented for this compound, CC(C)n1c(Nc2ccc(Cl)nc2)nc2cnc(Nc3ccc(N4CCN(C)CC4)cc3)nc21 ?
Response: 7.78

Prompt: What pIC50 value was documented for this compound, CC(C)n1c(Nc2cccc(Br)c2)nc2cnc(Nc3ccc(N4CCN(C)CC4)cc3)nc21 ?
Response: 9.70

====

# target or system: c-SRC (Homo sapiens (Human), UniProt P12931)
# Sequence (P12931 whole entry, looked up): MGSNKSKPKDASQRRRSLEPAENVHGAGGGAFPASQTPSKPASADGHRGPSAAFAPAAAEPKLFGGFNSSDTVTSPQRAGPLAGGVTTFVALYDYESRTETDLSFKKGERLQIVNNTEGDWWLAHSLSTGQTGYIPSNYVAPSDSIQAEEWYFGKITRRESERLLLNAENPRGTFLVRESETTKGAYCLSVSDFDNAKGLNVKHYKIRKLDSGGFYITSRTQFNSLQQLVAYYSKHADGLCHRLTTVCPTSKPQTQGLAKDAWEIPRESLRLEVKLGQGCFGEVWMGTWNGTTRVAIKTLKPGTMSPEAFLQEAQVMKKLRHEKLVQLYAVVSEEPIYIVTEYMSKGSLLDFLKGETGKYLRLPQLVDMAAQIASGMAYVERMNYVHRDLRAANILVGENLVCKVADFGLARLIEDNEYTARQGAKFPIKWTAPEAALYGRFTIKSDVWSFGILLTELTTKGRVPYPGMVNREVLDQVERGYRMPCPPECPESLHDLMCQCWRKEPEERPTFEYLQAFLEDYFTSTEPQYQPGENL
# method description: Kinase inhibitory activity, isotopic labeling (γ-33P-ATP)
# Type: biochemical
# condition label: compound at 10 μM
property name: The kinase activity inhibitory rate (%) by the tested compounds at 10 μM c-SRC
Respond numerically; units are % and should not be typed.

compound	recorded result
C=CC(=O)Nc1cccc(Nc2ncc3nc(Nc4ccccc4)n(C(C)C)c3n2)c1 [Compounds 8-38]	93
CC(C)n1c(Nc2ccc(OCc3cccc(F)c3)c(Cl)c2)nc2cnc(Nc3ccc(N4CCN(C)CC4)cc3)nc21 [Compounds 8-19]	97
CC(C)n1c(Nc2ccc(F)c(Cl)c2)nc2cnc(Nc3ccc(N4CCN(C)CC4)cc3)nc21 [Compounds 8-13]	31

Now look at this one.
Prompt: What The kinase activity inhibitory rate (%) by the tested compounds at 10 μM c-SRC value was documented for this compound, C#Cc1cccc(Nc2nc3cnc(Nc4ccc(N5CCN(C)CC5)cc4)nc3n2C(C)C)c1 [Compounds 8-12] ?
Response: 98

FYI, the data here is from patent US9096601B2.
